System: northern house mosquito
EXPERIMENT NOTES: Activity of oil spray against adult female northern house mosquito (glass chamber)
Type: in vivo
CONDITION DESCRIPTION: northern house mosquito, in vivo, 24 h
Recorded mortality, Northern house mosquito values for a group of compounds are listed next.
Response body: numeric value in %, unit text excluded.

Example entries and their recorded answers appear below.
>>> df
                                   compound                   property_measured  value_observed
0  CC1(C)[C@@H](C(=O)OC(C#N)c2cccc(Oc3ccccc3)c2)[C@@]12Cc1ccccc1O2 (relative stereo)  mortality, Northern house mosquito             100
1  C#CCN1CC(=O)N(COC(=O)C2C(C)(C)C23Cc2ccccc2C3)C1=O (centres unmarked)  mortality, Northern house mosquito              10
2  C#CCC=C(C)C(C#C)OC(=O)C1C(C)(C)C12Cc1ccccc1C2 (centres unmarked)  mortality, Northern house mosquito              70
3  CC1(C)[C@@H](C(=O)OC(C#N)c2cccc(Oc3ccccc3)c2)[C@]12Cc1ccccc1O2 (relative stereo)  mortality, Northern house mosquito             100

// lookup mortality, Northern house mosquito for C#CCC1=C(C)C(OC(=O)C2C(C)(C)C23Cc2ccccc2C3)CC1=O (centres unmarked) 100

// lookup mortality, Northern house mosquito for CC1(C)C(C(=O)OCN2C(=O)C3=C(CCCC3)C2=O)C12Cc1ccccc1C2 (centres unmarked) 95

// lookup mortality, Northern house mosquito for CC1(C)C(C(=O)OC2C=C(Cc3ccccc3)C(=O)C2)C12Cc1ccccc1C2 (centres unmarked) 70

// lookup mortality, Northern house mosquito for C=CCC1=C(C)C(OC(=O)C2C(C)(C)C23Cc2ccccc2C3)CC1=O (centres unmarked) 95
